Listed here: items and their measured LC retention time.
protocol.details: HILIC, Merck SeQuant ZIC-HILIC, 150 × 2.1 mm, 5 µm, 0.75 mL/min, estimated dead time 0.44 min; A: water + 10 mM ammonium formate, pH 6; B: 5% water + 95% acetonitrile + 10 mM ammonium formate, pH 6; gradient (min/%B) 0/95 5/95 20/57 25/57 30/95 40/95
assay.context: stereoisomer not certain

| compound | LC retention time (min) |
| --- | --- |
| Nc1nc2ncc(CNc3ccc(C(=O)NC(CCC(=O)O)C(=O)O)cc3)nc2c(=O)[nH]1 (stereo not given) | 14.9 |
| O=C(O)CCCCCC(=O)O [6-CARBOXYHEXANOATE] | 12.9 |
| O=C([O-])CCc1ccccc1O [3-(2-HYDROXYPHENYL)PROPANOATE] | 1.85 |
| O=c1[nH]cnc2c1ncn2C1OC(CO)C(O)C1O (stereo not given) | 8.73 |
| Cc1ncc(CO)c(C(=O)O)c1O [4-PYRIDOXATE] | 1.42 |
| NC(C=O)C(O)C(O)C(O)COS(=O)(=O)O [D-GLUCOSAMINE 6-SULFATE] | 15 |
| O=c1[nH]cnc2nc[nH]c12 | 3.94 |
| CCCCCCCCCCCCCCCC(=O)OCC(COP(=O)(O)OCCN)OC(=O)CCCCCCCCCCCCCCC (racemic) | 7.77 |
| CC(=O)NCCc1c[nH]c2ccc(O)cc12 | 1.15 |
| Nc1nc2nccnc2c(=O)[nH]1 | 5.74 |
